// Tmax lookup, one value per entry
assay: Tmax in CD-1 mouse at 10 mg/kg, ip measured upto 12 hrs by LC-MS/MS analysis; format: ADME, organism-based; conditions: in vivo
Give the figure together with its unit, number first.

{"columns": ["LINE_NOTATION", "REPORTED"],
 "data": [
  ["Nc1ccccc1NC(=O)c1ccc(CNC(=O)OC2CCCCC2)cc1", "4.8 min"]
]}

Could you now look at the following compound, please?
What does the data say about its Tmax? Entry: Nc1ccccc1NC(=O)c1ccc(CNC(=O)OCc2cccnc2)cc1
15 min

----------
// IC50 lookup, one value per entry
biological target: Histone deacetylase 2 (Homo sapiens); assay: Inhibition of HDAC2 (unknown origin) using 6-carboxyfluorescein peptide as substrate preincubated with compound followed by substrate addition by electrophoretic mobility shift assay
Sequence (Q92769 whole entry): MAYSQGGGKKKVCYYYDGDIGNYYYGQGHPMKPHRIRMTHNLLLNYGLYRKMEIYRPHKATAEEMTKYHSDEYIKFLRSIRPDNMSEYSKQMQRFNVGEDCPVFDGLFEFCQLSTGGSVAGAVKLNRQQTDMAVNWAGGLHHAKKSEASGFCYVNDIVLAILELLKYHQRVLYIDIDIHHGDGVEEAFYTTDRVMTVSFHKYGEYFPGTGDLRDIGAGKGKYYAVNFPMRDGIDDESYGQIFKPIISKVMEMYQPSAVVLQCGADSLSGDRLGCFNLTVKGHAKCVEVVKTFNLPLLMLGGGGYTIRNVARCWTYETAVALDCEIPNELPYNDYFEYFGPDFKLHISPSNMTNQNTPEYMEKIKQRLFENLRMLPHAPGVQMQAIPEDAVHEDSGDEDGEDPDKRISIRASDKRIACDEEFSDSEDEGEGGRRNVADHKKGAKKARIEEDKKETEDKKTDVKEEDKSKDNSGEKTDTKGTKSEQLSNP

What does the data say about its IC50? Entry: C#CC(=O)N1CCC(OC(=O)NCc2ccc(C(=O)Nc3ccccc3N)cc2)CC1
> 1000 nM

What does the data say about its IC50? Entry: C=CC(=O)N1CCC(OC(=O)NCc2ccc(C(=O)Nc3ccccc3N)cc2)CC1
> 1000 nM

What does the data say about its IC50? Entry: C=CS(=O)(=O)N1CCC(OC(=O)NCc2ccc(C(=O)Nc3ccccc3N)cc2)CC1
> 1000 nM

What does the data say about its IC50? Entry: C=C=CC(=O)N1CCC(OC(=O)NCc2ccc(C(=O)Nc3ccccc3N)cc2)CC1
> 1000 nM

What does the data say about its IC50? Entry: Nc1ccccc1NC(=O)c1ccc(CNC(=O)OC2CCCCC2)cc1
> 1000 nM

What does the data say about its IC50? Entry: Nc1ccccc1NC(=O)c1ccc(CNC(=O)OC2CCN(S(=O)(=O)CCl)CC2)cc1
> 1000 nM

What does the data say about its IC50? Entry: CN(C)C/C=C/C(=O)N1CCC(OC(=O)NCc2ccc(C(=O)Nc3ccccc3N)cc2)CC1
808 nM

What does the data say about its IC50? Entry: Nc1ccccc1NC(=O)c1ccc(CNC(=O)OC2CCN(C(=O)CCl)CC2)cc1
> 1000 nM

What does the data say about its IC50? Entry: Nc1ccccc1NC(=O)c1ccc(CNC(=O)OC2CCN(S(=O)(=O)c3c(F)c(F)c(F)c(F)c3F)CC2)cc1
808 nM

----------
test: Stability in human whole blood assessed as half life at 100 uM measured upto 40 mins by LC-MS/MS analysis; assay type: ADME, tissue-based
MEASURED_ATTRIBUTE: half-life at 100 µM (min)
Kindly provide the numeric value in min only, without the unit symbol.

{"columns": ["LINE_NOTATION", "MEASURED_ATTRIBUTE", "REPORTED"],
 "data": [
  ["C=CC(=O)N1CCC[C@@H](n2nc(-c3ccc(Oc4ccccc4)cc3)c3c(N)ncnc32)C1", "half-life at 100 µM", 64]
]}

Could you now look at the following compound, please?
What does the data say about its half-life at 100 µM? Entry: Nc1ccccc1NC(=O)c1ccc(CNC(=O)OCc2cccnc2)cc1
45

----------
assay: Cytotoxicity against human MRC9 cells assessed as inhibition of cell growth incubated for 72 hrs by celltiter-blue viability assay; type: toxicity, cell-based
MEASURED_ATTRIBUTE: IC50 at 72 h (µM)
Kindly provide the numeric value in µM only, without the unit symbol.

Worked cases, IC50 at 72 h given:
{"columns": ["LINE_NOTATION", "REPORTED"],
 "data": [
  ["Nc1ccccc1NC(=O)c1ccc(CNC(=O)OCc2cccnc2)cc1", 10.2],
  ["Nc1ccccc1NC(=O)c1ccc(CNC(=O)OC2CCN(S(=O)(=O)CCl)CC2)cc1", 15.9],
  ["Nc1ccccc1NC(=O)c1ccc(CNC(=O)OC2CCCCC2)cc1", 10.9],
  ["C=CC(=O)N1CCC(OC(=O)NCc2ccc(C(=O)Nc3ccccc3N)cc2)CC1", 21.6]
]}

What does the data say about its IC50 at 72 h? Entry: CN(C)C/C=C/C(=O)N1CCC(OC(=O)NCc2ccc(C(=O)Nc3ccccc3N)cc2)CC1
31.2
